Tested on: Caupolican (Caup) homeodomain DNA-binding domain
Sequence: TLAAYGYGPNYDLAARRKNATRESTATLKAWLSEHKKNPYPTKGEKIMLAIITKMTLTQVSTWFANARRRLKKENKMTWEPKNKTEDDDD
assay-explanation: PBM E-score (8-mer, recovered from the published 9-mer minima) (E-score (dimensionless, -0.5 to 0.5)); higher = stronger relative binding preference, active = 0.31 or more
Only a selection was taken, and hits are over-represented in it overall. The hit rate among all sequences tested is not known here.
Mark NO for PBM E-score values under 0.2, and YES for everything at or above.

Determine whether this sequence has PBM E-score no lower than 0.2: `AACAACAC`
YES

In plain terms: is recorded PBM E-score at least 0.2 for `GACAACGA` ?
NO

hey, is PBM E-score for this one >= 0.2? `AAGTCAAA`
NO

hey, is PBM E-score for this one >= 0.2? `TTGTCAAA`
YES

Reported PBM E-score reaches at least 0.2 for `GACAACAC` ?
YES

Can `GTCAACAC` be said to have PBM E-score at or above 0.2?
NO

Evaluate `GACAACTC` : PBM E-score at minimum 0.2?
NO

Quick check, PBM E-score >= 0.2? `CACAACAC`
YES

Reported PBM E-score reaches at least 0.2 for `ATGTCAAG` ?
YES

Kindly determine if PBM E-score recorded for `GTCAACAA` is above or exactly 0.2.
YES

Evaluate `AACAACGC` : PBM E-score at minimum 0.2?
NO

----------
System: Caupolican (Caup) homeodomain DNA-binding domain
Sequence: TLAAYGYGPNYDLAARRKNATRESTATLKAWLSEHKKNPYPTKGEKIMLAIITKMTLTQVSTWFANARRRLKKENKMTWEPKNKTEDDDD
assay-explanation: PBM E-score (8-mer, recovered from the published 9-mer minima) (E-score (dimensionless, -0.5 to 0.5)); Drosophila protein; higher = stronger relative binding preference, active = 0.31 or more
Only a selection was taken, and hits are over-represented in it overall. How many sequences the whole screen found active is unknown.
Valid outcomes are listed here; reply with one: active, inactive

Write down the call the test reported for this sequence. Item: `ATACATAG`
inactive

Would you mind telling me which call this test gave `GTGTAACA` ?
active

Write down the call the test reported for this sequence. Item: `AGGATGAA`
inactive

Returns: the outcome recorded for `AATCCCTA` in this assay.
inactive

Query: recorded result category for `ATGGTTGG` in this test
inactive

// param item: `CTGTAAGA` ; yields the recorded call
inactive

Answer briefly: the call reported for `AAAGCTCG` in this assay.
inactive

# outcome recorded in this test, key = `TACATATA`
active

Outcome? `AACATATC`
inactive

Test call, this sequence: `ACACGACA`
active

Lab log entry: `CAGGTACG` — outcome as called in the assay?
inactive

What did this assay record as the result for `ACGTAACA` ?
inactive

Any idea what this test logged for `AACATATA` ?
active

GET /call?item= `AACATATG` returns the recorded outcome of this test.
active

Dear all, I need the recorded test outcome for `CACATATG` , thank you.
inactive

# fetch the recorded call for `AACACTAA` here
inactive

Recorded test outcome, item `ATGTAAGA`
active

Outcome? `CTACATAC`
inactive

State the result this test recorded for `TATCTAGA` .
inactive

Hello, I am checking results. What call was entered for `AGTGGGTC` ?
inactive

I would be grateful if you could indicate the recorded call for `ATACATAT` .
active

Tell me the recorded outcome of this test for `ATGTAACA` .
active

Please indicate how the test categorized `GTGTAAGA` .
inactive

Recorded test outcome, item `GCACAATA`
inactive

Name the outcome recorded for `ACACGATC` in the assay.
inactive

Returns: the outcome recorded for `ATGTAACG` in this assay.
active

Which outcome was assigned to `TAACGCTA` in this test?
inactive

Answer briefly: the call reported for `ACACGACC` in this assay.
inactive

For `CTAACGGA` , which call appears in the assay record?
inactive

Record request — test call for `ACACAATA`
active

Returns: the outcome recorded for `AACATAGT` in this assay.
inactive

Recorded call for `ACACGTCG` ?
inactive

Dear colleague, could you share the recorded outcome for `GGGTAACA` when you have a moment?
inactive

Recorded call for `CACTAATA` ?
inactive

For `AAATAACT` , which call appears in the assay record?
inactive

Test call, this sequence: `ACCATATG`
inactive

Entry `ACACGTCT` : call = ?
inactive

Answer briefly: the call reported for `ACACAATG` in this assay.
inactive

// outcome(item) with item = `CACATATA`
inactive

Hello, I am checking results. What call was entered for `CATGACTA` ?
inactive

Query: recorded result category for `ACACGACT` in this test
inactive

# lookup: test call for `GCGTAACA`
inactive

Call for entry `AACATATT` :
active

Record lookup: outcome of this test for `AAAAAAGA` ?
inactive

What was the test verdict on `CGATCATA` ?
inactive

Assay result, entry `ACACGTCA` — outcome?
active
